B1: POMT2 (parent)
chain: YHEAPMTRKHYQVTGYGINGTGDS

Variants of: B1
test details: protein stability index of a GFP-peptide fusion (GPS, HEK-293T) (PSI 1-6); higher = more stable;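 note: lentivirally expressed fusions sorted by FACS into six bins by GFP to DsRed ratio, PSI derived from sequencing read proportions per bin multiplied by bin number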
assay context: c terminus: a fixed tail appended
metric: protein stability index
Output: the number by itself.

Data request: Find the measured protein stability index of `YHEAPMTRKHYQVTSYGINGTGDS` and report it.
Data returned: 2.14
